The compounds listed here are annotated with their Metabolite data: Nicotinate.
# System: P. falciparum 3D7 parasites
# RUN_DESCRIPTION: Metabolomic profiling of compound-treated parasites (LC/MS);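 also: Log2 fold change in abundance versus untreated parasite controls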
# Type: cell-based
# Protocol: The metabolite extraction protocol was performed as described elsewhere ([Allman et al., 2016]). Briefly, 1 mL of trophozoites that were magnetically purified to a concentration of 1×10^8 parasites/mL were placed into wells with 4 mL of RPMI 1640 media and allowed to recover for one hour. […] The culture was incubated for another 2.5 hr. The culture was centrifuged and quenched with 90% methanol containing 0.25 μM ^13C,^15N-Labeled-Aspartate, vortexed, and centrifuged. […]
PROPERTY_NAME: Metabolite data: Nicotinate

{"COMPOUND": "COc1cc2[nH]c(C)c(-c3ccc(Oc4ccc(OC(F)(F)F)cc4)cc3)c(=O)c2cc1Cl", "TEST_VALUE": 0.05305}
{"COMPOUND": "C[C@H]1Cc2c([nH]c3cc(Cl)c(F)cc23)[C@@]2(N1)C(=O)Nc1ccc(Cl)cc12", "TEST_VALUE": 0.78}
{"COMPOUND": "CC1(C)N=C(N)N=C(N)N1OCCCOc1cc(Cl)c(Cl)cc1Cl", "TEST_VALUE": 0.23}
{"COMPOUND": "CCN(CC)S(=O)(=O)c1ccc(Cl)c(C(=O)Nc2ccc3nc(C)sc3c2)c1", "TEST_VALUE": -0.004899}
{"COMPOUND": "O=C1C(O)=C([C@H]2CC[C@H](c3ccc(Cl)cc3)CC2)C(=O)c2ccccc21 [Atovaquone, reference compound]", "TEST_VALUE": -0.09}
{"COMPOUND": "N#Cc1cc(NC(=O)[C@H]2c3ccccc3C(=O)N(CC(F)(F)F)[C@@H]2c2cccnc2)ccc1F", "TEST_VALUE": 0.6001}
{"COMPOUND": "CCc1nc(N)nc(N)c1-c1ccc(Cl)cc1", "TEST_VALUE": 0.1972}
